In this section we review reported TGI values for a set of compounds.
# System: ACHN
# measurement-notes: Cytotoxicity against human ACHN cells
# Assay type: functional
# experimental-conditions: read-out: pTGI (converted)
test-readout: TGI (µM)

CC1=C([Se]CC(OC(=O)[C@@H](CO)NC(=O)OC(C)(C)C)C(=O)NCCCCCC(=O)OCc2ccccc2)C(=O)c2ccccc2C1=O (some centres undefined)
3.09
CC1=C([Se]CC(OC(=O)[C@@H](CSSC(C)(C)C)NC(=O)C(C)(C)C)C(=O)NCCCCCC(=O)OCc2ccccc2)C(=O)c2ccccc2C1=O (some centres undefined)
4.9
CC1=C([Se]CC(OC(=O)[C@@H](CO)NC(=O)OC(C)(C)C)C(=O)NC(C)(C)C)C(=O)c2ccccc2C1=O (some centres undefined)
3.02
CC1=C(SCCC(=O)OC(C[Se]C2=C(C)C(=O)c3ccccc3C2=O)C(=O)NCCCCCC(=O)OCc2ccccc2)C(=O)c2ccccc2C1=O (centres undefined)
27.5

* * *

Below is a list of entries, each paired with its recorded GI50 value.
# System: TK-10
# measurement-notes: Cytotoxicity against human TK10 cells
# Format: functional
test-readout: GI50 (µM)

CC1=C([Se]CC(OC(=O)[C@@H](CSSC(C)(C)C)NC(=O)C(C)(C)C)C(=O)NCCCCCC(=O)OCc2ccccc2)C(=O)c2ccccc2C1=O (some centres undefined)
2.4
CC1=C([Se]CC(OC(=O)[C@@H](CO)NC(=O)OC(C)(C)C)C(=O)NC(C)(C)C)C(=O)c2ccccc2C1=O (some centres undefined)
2
CC1=C([Se]CC(OC(=O)[C@@H](CO)NC(=O)OC(C)(C)C)C(=O)NCCCCCC(=O)OCc2ccccc2)C(=O)c2ccccc2C1=O (some centres undefined)
2.04
CC1=C(SCCC(=O)OC(C[Se]C2=C(C)C(=O)c3ccccc3C2=O)C(=O)NCCCCCC(=O)OCc2ccccc2)C(=O)c2ccccc2C1=O (centres undefined)
13.8

* * *

# Tested on: SW-620
# measurement-notes: Cytotoxicity against human SW620 cells
# Format: functional
This section presents molecules with their documented LC50 values.
test-readout: LC50 (µM)

CC1=C(SCCC(=O)OC(C[Se]C2=C(C)C(=O)c3ccccc3C2=O)C(=O)NCCCCCC(=O)OCc2ccccc2)C(=O)c2ccccc2C1=O (centres undefined)
36.3
CC1=C([Se]CC(OC(=O)[C@@H](CO)NC(=O)OC(C)(C)C)C(=O)NC(C)(C)C)C(=O)c2ccccc2C1=O (some centres undefined)
6.31
CC1=C([Se]CC(OC(=O)[C@@H](CSSC(C)(C)C)NC(=O)C(C)(C)C)C(=O)NCCCCCC(=O)OCc2ccccc2)C(=O)c2ccccc2C1=O (some centres undefined)
15.8
CC1=C([Se]CC(OC(=O)[C@@H](CO)NC(=O)OC(C)(C)C)C(=O)NCCCCCC(=O)OCc2ccccc2)C(=O)c2ccccc2C1=O (some centres undefined)
6.17

* * *

# System: MDA-MB-231
# measurement-notes: Cytotoxicity against human MDA-MB-231 cells
# Type: functional
# experimental-conditions: read-out: pTGI (converted)
Recorded measurements of TGI, one per entry
test-readout: TGI

CC1=C([Se]CC(OC(=O)[C@@H](CO)NC(=O)OC(C)(C)C)C(=O)NC(C)(C)C)C(=O)c2ccccc2C1=O (some centres undefined)
3.16 µM
CC1=C([Se]CC(OC(=O)[C@@H](CO)NC(=O)OC(C)(C)C)C(=O)NCCCCCC(=O)OCc2ccccc2)C(=O)c2ccccc2C1=O (some centres undefined)
3.16 µM
CC1=C([Se]CC(OC(=O)[C@@H](CSSC(C)(C)C)NC(=O)C(C)(C)C)C(=O)NCCCCCC(=O)OCc2ccccc2)C(=O)c2ccccc2C1=O (some centres undefined)
4.27 µM
CC1=C(SCCC(=O)OC(C[Se]C2=C(C)C(=O)c3ccccc3C2=O)C(=O)NCCCCCC(=O)OCc2ccccc2)C(=O)c2ccccc2C1=O (centres undefined)
21.9 µM
